target_under_test: Rabies virus glycoprotein G, Challenge Virus Standard (CVS)-11 strain (Rabies virus, strain CVS-11 (genotype 1 Lyssavirus)) (UniProt O92284)
Sequence (O92284 20-524 limits assumed): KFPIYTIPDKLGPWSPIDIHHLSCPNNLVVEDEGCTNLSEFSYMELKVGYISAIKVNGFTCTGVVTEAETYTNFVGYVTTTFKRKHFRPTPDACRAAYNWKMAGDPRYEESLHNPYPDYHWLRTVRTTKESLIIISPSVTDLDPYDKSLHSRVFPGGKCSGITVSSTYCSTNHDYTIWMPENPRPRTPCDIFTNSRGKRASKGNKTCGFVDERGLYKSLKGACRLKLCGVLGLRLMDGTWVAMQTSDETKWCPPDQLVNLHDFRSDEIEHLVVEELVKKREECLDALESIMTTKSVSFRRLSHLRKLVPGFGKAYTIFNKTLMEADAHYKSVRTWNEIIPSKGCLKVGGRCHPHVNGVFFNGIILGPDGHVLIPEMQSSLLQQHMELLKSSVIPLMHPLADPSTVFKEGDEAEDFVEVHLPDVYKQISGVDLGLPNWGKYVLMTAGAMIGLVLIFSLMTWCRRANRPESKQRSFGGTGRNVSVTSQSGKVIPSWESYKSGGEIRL
assay_info: cell-based or functional assay
readout_kind: CVS-11 neutralizing antibody titer (RFFIT), IU/µM (IU/µM)
Give your result in IU/µM as a bare value.

Asked: What value of measured CVS-11 neutralizing antibody titer (RFFIT), IU/µM is listed for LG214A8 (VHH) VHH: EVQLVKSGGGSVQAGGSLRLSCAASGGTFNPYVMAWFRQAPGNEREFVARIRWSGGDAYYDDSVKGRFAITRDAAKNTVHLQMNSLKPEDTAVYYCAAATYGYGSYTYGGSYDLWGQGTQVTVSS ?
Given back: 0.12

Hello, the source for this data is patent US20200123233A1, in case you need it.
